Recorded values, source ChEMBL document CHEMBL3351435.

test system: NCI/ADR-RES; test: Cytotoxicity against human NCI/ADR-RES cells assessed as growth inhibition after 96 hrs by Giemsa staining-based light microscopy; assay type: functional, cell-based
This listing pairs molecules with measured IC50.
Output spec: scalar in nM, unitless text.

Recorded IC50, per entry:
COc1ccc(-n2ccc(C(=O)c3cc(OC)c(OC)c(OC)c3)c2)cc1    17
COc1cc(C(=O)c2ccn(-c3cccc(N)c3)c2)cc(OC)c1OC    1
COc1cc(C(=O)c2ccn(-c3ccccc3)c2)cc(OC)c1OC    20
COc1cccc(-n2ccc(C(=O)c3cc(OC)c(OC)c(OC)c3)c2)c1    90

We now examine a further molecule.
Q. What measured IC50 goes with `COc1ccccc1-n1ccc(C(=O)c2cc(OC)c(OC)c(OC)c2)c1` ?
A. 200

----------
tested on: RD; experiment: Cytotoxicity against human RD cells assessed as growth inhibition after 48 hrs by MTT method; type: functional, cell-based
recorded metric: pIC50
Please treat pIC50 as minus the base-10 logarithm of the molar concentration.

CC(=O)O[C@H]1C(=O)[C@@]2(C)[C@H]([C@H](OC(=O)c3ccccc3)[C@]3(O)C[C@H](OC(=O)[C@H](O)[C@@H](NC(=O)c4ccccc4)c4ccccc4)C(C)=C1C3(C)C)[C@]1(OC(C)=O)CO[C@@H]1C[C@@H]2O    4.85
CC[C@]1(O)C[C@@H]2CN(CCc3c([nH]c4ccccc34)[C@@](C(=O)OC)(c3cc4c(cc3OC)N(C)[C@H]3[C@@](O)(C(=O)OC)[C@H](OC(C)=O)[C@]5(CC)C=CCN6CC[C@]43[C@@H]65)C2)C1    7.28
COc1cc(C(=O)c2ccn(-c3cccc(NC(=N)N)c3)c2)cc(OC)c1OC.Cl    6.10

Q. What measured pIC50 goes with `COc1cc(C(=O)c2ccn(-c3cccc(N)c3)c2)cc(OC)c1OC` ?
A. 7.02

----------
assay: Elimination half life in CD-1 mouse at 15 mg/kg, po; format: ADME, organism-based; parameters: dose 15 mg/kg, route oral; conditions: in vivo, read-out: beta t1/2
recorded metric: half-life (h)
Output spec: scalar in h, unitless text.

Q. What measured half-life goes with `COc1cc(C(=O)c2ccn(-c3cccc(N)c3)c2)cc(OC)c1OC` ?
A. 2.98

----------
assay: Volume of distribution at steady state in CD-1 mouse at 5 mg/kg, iv; type: ADME, organism-based; set-up: dose 5 mg/kg, route intravenous; details: in vivo, read-out: Vdss
recorded metric: Vd (L/kg)
Output spec: scalar in L/kg, unitless text.

Q. What measured Vd goes with `COc1cc(C(=O)c2ccn(-c3cccc(N)c3)c2)cc(OC)c1OC` ?
A. 2.7

----------
test system: MCF7; assay: Cytotoxicity against human MCF7 cells after 96 hrs by Giemsa staining-based light microscopy; assay type: functional, cell-based; details: MCF7, 96 h
This listing pairs molecules with measured IC50.
Output spec: scalar in nM, unitless text.

Recorded IC50, per entry:
COc1cc(C(=O)c2ccn(-c3ccccc3O)c2)cc(OC)c1OC    530
COc1cc(C(=O)c2ccn(-c3cccc(NC(C)C)c3)c2)cc(OC)c1OC    20

Q. What measured IC50 goes with `COc1cc(C(=O)c2ccn(-c3cccc(Cl)c3)c2)cc(OC)c1OC` ?
A. 600

Q. Do the same for `COc1cc(C(=O)c2ccn(-c3cccc(NC(=N)N)c3)c2)cc(OC)c1OC.Cl` please
A. 20

Q. Do the same for `COc1cc(C(=O)c2ccn(-c3cccc(N(C)C)c3)c2)cc(OC)c1OC` please
A. 1000
